// log10 Koc (L/kg) lookup, one value per entry
Observable: log10 Koc (L/kg)

NC(=O)c1ccc([N+](=O)[O-])cc1 ... 1.93
c1ccc2nc3ccccc3cc2c1 ... 4.18
CC(=O)Nc1ccccc1Cl ... 1.58
Clc1c(Cl)c(Cl)c(Cl)c(Cl)c1Cl ... 3.74
COc1c(O)c(Cl)c(Cl)c(Cl)c1Cl ... 2.85
CCc1cccc(CC)c1N(COC)C(=O)CCl ... 2.28
Cc1cc(Cl)ccc1OCC(=O)O ... 1.73
NC(=O)Nc1ccc(Oc2ccccc2)cc1 ... 2.56

---

// melting point lookup, one value per entry
Observable: melting point (°C)

O=[N+]([O-])c1cc(Cl)c(Cl)c(Cl)c1 ... 72.5
CC1CC1 ... -177
COc1cc(OC)c(OC)cc1C=O ... 114
O=C1OCCC1N(C(=O)C1CC1)c1cccc(Cl)c1 (stereo not given) ... 95
C=CC=CC#N ... -60
CCc1ccccc1 ... -94.9
O=C(c1ccc(Cl)cc1)c1ccccc1Cl ... 67
CCOP(=S)(Oc1ccc([N+](=O)[O-])cc1)c1ccccc1 (stereo not given) ... 36
CC(=O)C=Cc1ccco1 ... 39.5
CCCCC(CC)CN (stereo not given) ... -76
CN1CN(C)CN(C)C1 ... -27
CCCSSCCC ... -85.6
C[C@@H]1O[C@@H](Oc2c(-c3ccc(O)c(O)c3)oc3cc(O)cc(O)c3c2=O)[C@H](O)[C@H](O)[C@H]1O ... 170
c1ccc2nsnc2c1 ... 43
CCCCCCCCCCCCCCCCCCCc1ccccc1 ... 40

---

Classification field: Met = melting point at or over 80 °C; Not met = melting point under 80 °C.

CCC(C(=O)O)c1ccc(-c2ccccc2)cc1 (centres undefined) ... Met
OCCc1ccc(O)cc1 ... Met
CCOC(=O)C=C1SC(N2CCCCC2)C(=O)N1CC (centres undefined) ... Met
CCCOC(=O)CCCCC(=O)OCCC ... Not met
CCOCCc1ccc(OCCN=c2[nH]cnc(CC)c2Cl)c(C)c1C ... Not met
C[C@]12CC[C@@H]3c4ccc(OC5CCCC5)cc4CC[C@H]3[C@@H]1C[C@@H](O)[C@@H]2O ... Met
Fc1cc2c(cc1F)Oc1cc(Cl)c(Cl)cc1O2 ... Met
C1COCCN1 ... Not met
CCCCC1CCCC1 ... Not met
CC(C)(C)c1cccc(O)c1 ... Not met
CC(C)(C)C(=O)C(=O)O ... Met
CC(C)(C)OC(=O)CC(=O)OC(C)(C)C ... Not met
C=CC1CC2C=CC1C2 (centres undefined) ... Not met

---

- Experimental conditions: fish
Classification field: Y = log10 BCF at or over 2; N = log10 BCF under 2.

c1ccc(-c2ccccc2-c2ccccc2)cc1 ... Y
c1ccc2cc3ccccc3cc2c1 ... Y
Clc1ccc(-c2cc(Cl)ccc2Cl)cc1 ... Y
Cc1ccc([N+](=O)[O-])cc1 ... N
O=S(=O)([O][Na])c1ccc2cc(O)c(S(=O)(=O)[O][Na])cc2c1 ... N
O=C(O)C1CCCCC1C(=O)O (configuration not stated) ... N
O=C1c2ccccc2C(=O)c2c1ccc1ccccc21 ... N
Nc1cc(Cl)c(Cl)c(Cl)c1Cl ... Y
Cc1cccc(C(C)C)c1 ... Y
N#Cc1ccc(O)cc1 ... N
Cc1cc(Cl)ccc1O ... N
CC(C)(CO)CO ... N
FC(Cl)(Cl)C(F)(Cl)Cl ... N
CCC(C)c1cc([N+](=O)[O-])cc([N+](=O)[O-])c1O (configuration not stated) ... N
Clc1cc(Cl)c(-c2cc(Cl)c(Cl)cc2Cl)cc1Cl ... Y
CC1CCCCC1 ... Y
CCc1cccc(CC)c1N(COC)C(=O)CCl ... N
BrC(Br)Br ... N
Brc1ccc(Oc2ccc(Br)cc2Br)c(Br)c1 ... Y
Clc1cc(Cl)c(Cl)c(Cl)c1Cl ... Y
Nc1cccc2c(N)cccc12 ... N
CNc1ccccc1C ... N
O=[N+]([O-])c1ccc(Cl)cc1 ... N
CC(C)(C)c1cc(-c2ccccc2)cc(C(C)(C)C)c1O ... Y
C=C(C)CC(C)(C)C ... Y
OC(c1ccccc1)c1ccc(Cl)cc1 (configuration not stated) ... N
C=Cc1ccc(C=C)cc1 ... Y
CC(C)(C)c1ccc(C(=O)O)cc1 ... N
ClCC(Cl)(Cl)CCl ... N
CC(CC(C)(C)C)CC(C)(C)C ... Y
Cc1ccc(N)cc1C ... N

---

Classification field: 1 (yes) = log10 vapour pressure (mmHg) at or over -0.8; 0 (no) = log10 vapour pressure (mmHg) under -0.8.

Clc1ccc(-c2cc(Cl)ccc2Cl)cc1 ... 0 (no)
C=COC=C ... 1 (yes)
CCCOP(=O)(OCCC)Oc1ccc(SC)cc1 ... 0 (no)
CC1(C)[C@H](C(=O)O[C@H](C#N)c2cccc(Oc3ccccc3)c2)[C@@H]1/C=C\C(=O)OC(C(F)(F)F)C(F)(F)F ... 0 (no)
N#CCCOCCC#N ... 0 (no)
Clc1ccc2oc3c(Cl)c(Cl)c(Cl)c(Cl)c3c2c1 ... 0 (no)
CC(C)[C@]12CC(=O)[C@H](C)[C@H]1C2 ... 1 (yes)
FC(F)Cl ... 1 (yes)
CCCCC/C=C\C/C=C\CCCCCCCC(=O)O ... 0 (no)
CCOC(=O)CC ... 1 (yes)
CCCCCCCCCCO ... 0 (no)
CC=C(Cl)Cl ... 1 (yes)
CC(=O)C(C)CO (centres undefined) ... 1 (yes)
C=CCN(CC=C)CC=C ... 1 (yes)
CCCCCCCCCI ... 0 (no)
CCCOC ... 1 (yes)
NC(=S)c1c(Cl)cccc1Cl ... 0 (no)
Cc1ccccc1F ... 1 (yes)
COc1cc(OC)nc(N=C(O)NS(=O)(=O)N(C)S(C)(=O)=O)n1 ... 0 (no)
CN(C)c1ccc(N=Nc2ccc([N+](=O)[O-])cc2)cc1 ... 0 (no)
CC(O)CCO (centres undefined) ... 0 (no)
CC(C)CCOC(=O)c1ccccc1 ... 0 (no)
Cc1cccc2c1Cc1ccccc1-2 ... 0 (no)
CCCC(C)C ... 1 (yes)
CCCCOCCOCCOCCCC ... 0 (no)
CC(=O)O ... 1 (yes)
CCC(CO)CC(C)C (centres undefined) ... 1 (yes)
O=[N+]([O-])OCC(CO[N+](=O)[O-])O[N+](=O)[O-] ... 0 (no)
Cc1cccc(Cl)c1 ... 1 (yes)
C1CCOC1 ... 1 (yes)
CCO[Si](C)(C)C ... 1 (yes)
Cc1cccnc1 ... 1 (yes)
CC(Cc1ccc(C(C)(C)C)cc1)CN1CCCCC1 (centres undefined) ... 0 (no)
CC(C)COCC(C)O (centres undefined) ... 1 (yes)
Cc1ccc2cccnc2c1 ... 0 (no)
OCCCO ... 0 (no)
CC(C)Oc1cc(-n2nc(C(C)(C)C)oc2=O)c(Cl)cc1Cl ... 0 (no)
C1CCCC1 ... 1 (yes)
CCCOC(=O)CCC ... 1 (yes)
c1ccc(-c2cccc(-c3ccccc3)c2)cc1 ... 0 (no)
CC(C)CC(C)(C)C ... 1 (yes)
CCCCOC=O ... 1 (yes)
CCC(C)(C)C(=O)O ... 0 (no)
CC(C)(C)CO ... 1 (yes)
Clc1cccc(Oc2ccc(Cl)cc2Cl)c1 ... 0 (no)
CC(C)C(C)O (centres undefined) ... 1 (yes)
N#C/C(=N\OCC1OCCO1)c1ccccc1 ... 0 (no)
CCCCCCCCCCCCCCCO ... 0 (no)
CCOc1ccc(NC(C)=O)cc1 ... 0 (no)
CCCCSC ... 1 (yes)
CCCCN=C=O ... 1 (yes)
CC(C)=C(C)C ... 1 (yes)
CCCOCC ... 1 (yes)
c1ccc2cc3c(ccc4ccccc43)cc2c1 ... 0 (no)
ClCCOCCOCCCl ... 0 (no)
CCCCOS(=O)(=O)OCCCC ... 0 (no)
CCC(C)n1c(=O)[nH]c(C)c(Br)c1=O (centres undefined) ... 0 (no)
CC(O)CN (centres undefined) ... 1 (yes)
c1ccc2occc2c1 ... 1 (yes)
FC(F)(F)Cl ... 1 (yes)
Clc1ccc(Oc2ccc(Cl)c(Cl)c2)cc1 ... 0 (no)
FC(F)(F)C(=NOCC1OCCO1)c1ccc(Cl)cc1 ... 0 (no)
O=C(Cl)/C=C/C(=O)Cl ... 1 (yes)
Nc1cccc([N+](=O)[O-])c1 ... 0 (no)
CCc1cccc2ccccc12 ... 0 (no)
CC1(C)C(C=C(Cl)Cl)C1C(=O)OCc1cccc(Oc2ccccc2)c1 (centres undefined) ... 0 (no)
CCC(C)I (centres undefined) ... 1 (yes)
O=CC(Cl)Cl ... 1 (yes)
C=Cc1ccccc1C ... 1 (yes)

Every entry's value here was drawn from the OPERA property sets (Mansouri et al. 2018).
